Attribution: patent US8524909B2

target: mGlyT-1b (Mus musculus (Mouse), UniProt P28571); test: Glycine Uptake Inhibition Assay (mGlyT-1b); conditions: [3H]-glycine uptake in Flp-in-CHO cells stably transfected with mGlyT1b cDNA; 20 min preincubation at 22° C.
Sequence (P28571 other isoform, or with tags, fused parts or gaps isoform P28571-2): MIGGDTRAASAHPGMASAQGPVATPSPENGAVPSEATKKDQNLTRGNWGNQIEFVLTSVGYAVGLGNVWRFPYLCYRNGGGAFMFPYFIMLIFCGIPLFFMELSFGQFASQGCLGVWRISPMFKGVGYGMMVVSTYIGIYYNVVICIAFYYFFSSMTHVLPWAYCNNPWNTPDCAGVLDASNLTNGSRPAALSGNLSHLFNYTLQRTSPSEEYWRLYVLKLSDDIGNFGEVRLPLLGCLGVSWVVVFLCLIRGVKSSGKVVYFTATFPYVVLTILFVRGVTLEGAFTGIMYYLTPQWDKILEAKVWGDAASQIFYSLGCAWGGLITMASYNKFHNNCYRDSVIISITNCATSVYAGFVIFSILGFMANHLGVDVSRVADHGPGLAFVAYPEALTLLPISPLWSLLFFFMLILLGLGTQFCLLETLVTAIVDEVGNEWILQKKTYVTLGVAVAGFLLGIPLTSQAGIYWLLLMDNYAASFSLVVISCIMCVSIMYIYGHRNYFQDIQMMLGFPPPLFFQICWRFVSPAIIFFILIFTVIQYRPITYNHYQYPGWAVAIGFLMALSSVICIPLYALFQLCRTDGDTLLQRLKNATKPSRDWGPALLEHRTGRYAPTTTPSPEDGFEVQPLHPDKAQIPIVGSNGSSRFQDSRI
pIC50: −log10 of the molar value.
measured.attribute: pIC50

O=C(N[C@@H]1COCC[C@H]1NC1CCCC1)c1ccc(C(F)(F)F)cc1C1CC1 (racemic) [Example 12] :: 7.12
COc1cc(C(F)(F)F)cc(SC)c1C(=O)N[C@@H]1COCC[C@H]1NC1(C)CCCCC1 (racemic) :: 6.56
O=C(N[C@@H]1COCC[C@H]1N1CCC(O)CC1)c1ccc(C(F)(F)F)cc1C1CC1 (racemic) :: 6.56
COc1cc(C(F)(F)F)cc(SC)c1C(=O)N[C@@H]1CCOC[C@@H]1N1CCCC1 (relative stereo) [Example 63] :: 6.72
COc1cc(C(F)(F)F)cc(SC)c1C(=O)N[C@@H]1COCC[C@H]1NC(C)C1CC1 (mixture of isomers) :: 6.56
CCc1cc(C(F)(F)F)cc(C)c1C(=O)N[C@@H]1COCC[C@H]1N1CCCC1 (racemic) :: 7.75
COc1cc(C(F)(F)F)cc(C)c1C(=O)N[C@H]1COCC[C@@H]1N1CCCC1 :: 7.11

###

biological target: mGlyT-1b (Mus musculus (Mouse)); test: Glycine Uptake Inhibition Assay (mGlyT-1b); conditions: [3H]-glycine uptake in Flp-in-CHO cells stably transfected with mGlyT1b cDNA; 20 min preincubation at 22° C.
# Lookup of reported IC50 keyed by entry
measured.attribute: IC50

COc1cc(C(F)(F)F)cc(SC)c1C(=O)N[C@@H]1COCC[C@H]1N1C[C@H]2C[C@H]2C1 :: 110 nM
Cc1cc(C(F)(F)F)cc(C)c1C(=O)N[C@@H]1COCC[C@H]1N1CCCC1 [Example 52] :: 34.1 nM
COc1cc(C(F)(F)F)cc(SC)c1C(=O)N[C@@H]1COCC[C@H]1NC1CCC(O)CC1 (mixture of isomers) :: 751 nM
O=C(N[C@@H]1COCC[C@H]1NC1CCCCC1)c1ccc(C(F)(F)F)cc1C1CC1 (racemic) [Example 14] :: 125 nM

###

# Lookup of reported IC50 keyed by entry
biological target: mGlyT-1b (Mus musculus (Mouse)); assay: Glycine Uptake Inhibition Assay (mGlyT-1b); conditions: [3H]-glycine uptake in Flp-in-CHO cells stably transfected with mGlyT1b cDNA; 20 min preincubation at 22° C.
measured.attribute: IC50

CCc1cc(C(F)(F)F)cc(OC)c1C(=O)N[C@@H]1COCC[C@H]1N1CCCC1 [Example 56] :: 15.5 nM
O=C(N[C@H]1COCC[C@@H]1N1CCCC1)c1ccc(C(F)(F)F)cc1C1CC1 [Example 38] :: 83.4 nM
COc1cc(C(F)(F)F)cc(SC)c1C(=O)N[C@@H]1CCOC[C@@H]1N1CCCC1 [Example 65] :: 119 nM
O=C(N[C@@H]1COCC[C@H]1N1CCCC1)c1ccc(C(F)(F)F)cc1C1CC1 [Example 37] :: 83.4 nM
COc1cc(C(F)(F)F)cc(SC)c1C(=O)N[C@H]1COCC[C@@H]1N1CCCC1 (single isomer, unassigned) [Example 5] :: 118 nM
COc1cc(C(F)(F)F)cc(SC)c1C(=O)N[C@H]1COCC[C@H]1N1CCCC1 (racemic) [Example 1] :: 261 nM
O=C(N[C@@H]1COCC[C@H]1NC1CCOCC1)c1ccc(C(F)(F)F)cc1C1CC1 (racemic) [Example 17] :: 904 nM
Cc1cc(C(F)(F)F)cc(C)c1C(=O)N[C@H]1COCC[C@@H]1N1CCCC1 [Example 51] :: 25.3 nM
O=C(N[C@@H]1COCC[C@H]1NC1CCCC1)c1ccc(C(F)(F)F)cc1C1CC1 [Example 44] :: 299 nM
COc1cc(C(F)(F)F)cc(SC)c1C(=O)N[C@@H]1COCC[C@H]1NC1(C)CCCC1 (racemic) [Example 28] :: 144 nM
Cc1cc(C(F)(F)F)cc(C)c1C(=O)N[C@@H]1COCC[C@H]1N1CCCC1 (racemic) [Example 21] :: 45.2 nM
COc1cc(C(F)(F)F)cc(C)c1C(=O)N[C@@H]1COCC[C@H]1N1CCCC1 (racemic) [Example 22] :: 105 nM
COc1cc(C(F)(F)F)cc(C)c1C(=O)N[C@@H]1COCC[C@H]1N1CCCC1 [Example 54] :: 33.8 nM
O=C(N[C@@H]1COCC[C@H]1N1C[C@H]2C[C@H]2C1)c1ccc(C(F)(F)F)cc1C1CC1 [Example 35] :: 26.5 nM
CSc1cc(C(F)(F)F)cc(C(F)(F)F)c1C(=O)N[C@@H]1COCC[C@H]1N1CCCC1 [Example 42] :: 27 nM
COc1cc(C(F)(F)F)cc(SC)c1C(=O)N[C@H]1COCC[C@@H]1NC1CCCC1 [Example 45] :: 111 nM
COc1cc(C(F)(F)F)cc(SC)c1C(=O)N[C@@H]1COCC[C@H]1NC1CCCC1 [Example 46] :: 158 nM
O=C(N[C@@H]1COCC[C@H]1NC1CCC1)c1ccc(C(F)(F)F)cc1C1CC1 (racemic) [Example 32] :: 119 nM
CSc1cc(C(F)(F)F)cc(C(F)(F)F)c1C(=O)N[C@@H]1COCC[C@H]1N1CCCC1 (racemic) [Example 9] :: 16.5 nM
Cc1cc(C(F)(F)F)cc(C(F)(F)F)c1C(=O)N[C@H]1COCC[C@@H]1N1CCCC1 [Example 39] :: 43.9 nM
CSc1cc(C(F)(F)F)cc(C(F)(F)F)c1C(=O)N[C@@H]1COCC[C@H]1NC1CCCC1 (racemic) [Example 13] :: 250 nM
O=C(N[C@H]1COCC[C@@H]1NC1CCCC1)c1ccc(C(F)(F)F)cc1C1CC1 (stereo in doubt) [Example 43] :: 78.8 nM
CC1(N[C@@H]2CCOC[C@H]2NC(=O)c2ccc(C(F)(F)F)cc2C2CC2)CCCC1 (racemic) [Example 29] :: 235 nM
COc1cc(C(F)(F)F)cc(SC)c1C(=O)N[C@H]1COCC[C@@H]1N1CCCC1 (racemic) [Example 2] :: 66.2 nM
O=C(N[C@@H]1COCC[C@H]1NCC1CC1)c1ccc(C(F)(F)F)cc1C1CC1 (racemic) [Example 18] :: 126 nM
CCc1cc(C(F)(F)F)cc(OC)c1C(=O)N[C@H]1COCC[C@@H]1N1CCCC1 [Example 55] :: 48.3 nM
COc1cc(C(F)(F)F)cc(SC)c1C(=O)N[C@H]1COCC[C@@H]1N1CCC(O)C1 (mixture of isomers) [Example 7] :: 155 nM
COc1cc(C(F)(F)F)cc(C2CC2)c1C(=O)N[C@@H]1COCC[C@H]1N1CCCC1 (racemic) [Example 27] :: 14.7 nM
COc1cc(C(F)(F)F)cc(C2CC2)c1C(=O)N[C@H]1COCC[C@@H]1N1CCCC1 [Example 57] :: 62.5 nM
COc1cc(C(F)(F)F)cc(C2CC2)c1C(=O)N[C@@H]1COCC[C@H]1N1CCCC1 [Example 58] :: 7.6 nM
O=C(N[C@H]1COCC[C@@H]1NC1CCCCC1)c1ccc(C(F)(F)F)cc1C1CC1 [Example 50] :: 57 nM

###

biological target: mGlyT-1b (Mus musculus (Mouse)); assay: Glycine Uptake Inhibition Assay (mGlyT-1b); details: [3H]-glycine uptake in Flp-in-CHO cells stably transfected with mGlyT1b cDNA; 20 min preincubation at 22° C.
measured.attribute: IC50 (nM)

O=C(N[C@@H]1COCC[C@H]1N1CCCC1)c1ccc(C(F)(F)F)cc1C1CC1 (racemic) [Example 8] :: 36.3
COc1cc(C(F)(F)F)cc(SC)c1C(=O)N[C@H]1COCC[C@@H]1NC1CCC1 (racemic) :: 337
Cc1cc(C(F)(F)F)cc(C(F)(F)F)c1C(=O)N[C@@H]1COCC[C@H]1N1CCCC1 (racemic) [Example 10] :: 41.2
O=C(N[C@@H]1COCC[C@H]1N1CCCC1)c1c(C2CC2)cc(C(F)(F)F)cc1C(F)(F)F (racemic) [Example 15] :: 13.2
COc1cc(C(F)(F)F)cc(SC)c1C(=O)N[C@H]1CCOC[C@H]1N1CCCC1 :: 189
O=C(N[C@@H]1COCC[C@H]1N1CCCC1)c1c(C2CC2)cc(C(F)(F)F)cc1C(F)(F)F [Example 48] :: 20
O=C(N[C@@H]1COCC[C@H]1N1CCCCC1)c1ccc(C(F)(F)F)cc1C1CC1 (racemic) :: 81.5
CCc1cc(C(F)(F)F)cc(OC)c1C(=O)N[C@@H]1COCC[C@H]1N1CCCC1 (racemic) [Example 24] :: 64.1
COc1cc(C(F)(F)F)cc(SC)c1C(=O)N[C@H]1COCC[C@@H]1N1CCCC1 (single isomer, unassigned) [Example 6] :: 28.4
CSc1cc(C(F)(F)F)cc(C(F)(F)F)c1C(=O)N[C@H]1COCC[C@@H]1N1CCCC1 :: 44.7
O=C(N[C@@H]1COCC[C@H]1NC1CCCCC1)c1ccc(C(F)(F)F)cc1C1CC1 [Example 49] :: 340
COc1cc(C(F)(F)F)cc(SC)c1C(=O)N[C@@H]1COCC[C@H]1NC1CCCC1 (racemic) [Example 11] :: 127
CC(N[C@@H]1CCOC[C@H]1NC(=O)c1ccc(C(F)(F)F)cc1C1CC1)C1CC1 (mixture of isomers) :: 83.8
Cc1cc(C(F)(F)F)cc(C(F)(F)F)c1C(=O)N[C@@H]1COCC[C@H]1N1CCCC1 [Example 40] :: 95.5
O=C(N[C@H]1COCC[C@@H]1N1CCCC1)c1c(C2CC2)cc(C(F)(F)F)cc1C(F)(F)F :: 16
